Assay target: Biotinylated SARS-CoV-2 S1 protein (ACRO, S1N-C82E8) (UniProt P0DTC2 16-685)
Experiment summary: BLI
pKd: −log10 of the molar value.
pKd by entry:

{"Binder": "S1-RBD-R3-E1-E8 Ab (Ab 37) (scFv, V domains shown) VH: QVQLVQSGAEVKKPGASVKVSCKASGYTFTSYGISWVRQAPGQGLEWMGWISTYNGNTNYAQKLQGRVTMTTDTSTSTAYMEVRSLRSDDTAVYYCARDVFGHFDYWGQGTLVTVSS VL: NFMLTQPHSVSESPGKTVLISCTRSSGNIATNYVQWYQQRPGSAPTTVIYEDNQRPSGVPDRFSGSIDSSSNSASLTISGLKTEDEADYYCKSYDDGNHVFGGGTKLTVL", "pKd": 9.04}
{"Binder": "Ab 25 scFv-Fc (scFv, V domains shown) VH: QVQLVQSGGGLVQPGGSLRLSCAASGFTFSSYWMSWVRQAPGKGLEWVANIKQDGSEKYYVDSVKGRFTISRDNAKNSLYLQMNSLRAEDTAVYYCARGFYYYGAFDIWGQGTTVTVSS VL: NFMLTQPHSVSESPGKTVTISCTGSSGSIASNYVQWYQQRPGSAPTTVIYEDNQRPSGVPDRFSGSIGSSSNSASLTISGLKTEDEADYYCQSYDSSNHWVFGGGTKLTVL", "pKd": 8.00}
